B1: HEEH_KT_rd6_0790 (parent)
chain: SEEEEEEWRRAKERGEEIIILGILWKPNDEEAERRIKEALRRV

# Variants of: B1
# assayComment: folding stability dG (cDNA display proteolysis); higher = more stable
# recordedConditions: PBS, room temperature
Attribute: folding stability dG
experimentalReadout: folding stability dG (kcal/mol)

[
  {
    "mutantLabel": "E2T",
    "experimentalReadout": "folding stability dG",
    "recordedValue": 2.49
  },
  {
    "mutantLabel": "I36D",
    "experimentalReadout": "folding stability dG",
    "recordedValue": 0.894
  },
  {
    "mutantLabel": "D29L",
    "experimentalReadout": "folding stability dG",
    "recordedValue": 1.01
  },
  {
    "mutantLabel": "R42T",
    "experimentalReadout": "folding stability dG",
    "recordedValue": 1.83
  },
  {
    "mutantLabel": "E30A",
    "experimentalReadout": "folding stability dG",
    "recordedValue": 2.03
  },
  {
    "mutantLabel": "E31S",
    "experimentalReadout": "folding stability dG",
    "recordedValue": 1.69
  },
  {
    "mutantLabel": "E3T",
    "experimentalReadout": "folding stability dG",
    "recordedValue": 2.36
  },
  {
    "mutantLabel": "E30N",
    "experimentalReadout": "folding stability dG",
    "recordedValue": 1.83
  },
  {
    "mutantLabel": "L24M",
    "experimentalReadout": "folding stability dG",
    "recordedValue": 1.79
  },
  {
    "mutantLabel": "I20E",
    "experimentalReadout": "folding stability dG",
    "recordedValue": 0.692
  },
  {
    "mutantLabel": "I19M",
    "experimentalReadout": "folding stability dG",
    "recordedValue": 2.01
  },
  {
    "mutantLabel": "E33W",
    "experimentalReadout": "folding stability dG",
    "recordedValue": 1.99
  },
  {
    "mutantLabel": "E6P",
    "experimentalReadout": "folding stability dG",
    "recordedValue": 1.35
  },
  {
    "mutantLabel": "R34F",
    "experimentalReadout": "folding stability dG",
    "recordedValue": 1.9
  }
]
